- Tested on: COLO205 colon adenocarcinoma cells (B-Raf V600E mutation)
- procedure_text: COLO205 cell growth inhibition (ATPlite)
- Type: cell-based
- study_conditions: Homo sapiens, COLO 205, 72 h, 3 days
metric: IC50

The following compounds have reported results that may help.
- O=C(c1cccc(NS(=O)(=O)N2CC[C@@H](F)C2)c1F)c1c[nH]c2ncc(-c3cnc(C4CC4)nc3)cc12: < 1 µM
- O=C(c1cccc(NS(=O)(=O)N2CCCC2)c1F)c1c[nH]c2ncc(-c3cnc(N4CCCC4)nc3)cc12: < 1 µM
- CCN(C)S(=O)(=O)Nc1cccc(C(=O)c2c[nH]c3ncc(-c4cnc(C)nc4)cc23)c1F: < 1 µM
- CCN(C)S(=O)(=O)Nc1ccc(F)c(C(=O)c2c[nH]c3ncc(Cl)cc23)c1F: > 1 µM
- COCCS(=O)(=O)Nc1cccc(C(=O)c2c[nH]c3ncc(-c4cnc(OC)nc4)cc23)c1F: > 1 µM

Find the measured IC50 of COCCN(C)S(=O)(=O)Nc1cccc(C(=O)c2c[nH]c3ncc(-c4cnc(NC5CC5)nc4)cc23)c1F and report it.
< 1 µM

Find the measured IC50 of O=C(c1cccc(NS(=O)(=O)N2CCCC2)c1F)c1c[nH]c2ncc(-c3cnc(N4CCOCC4)nc3)cc12 and report it.
< 1 µM

Find the measured IC50 of COc1cc(-c2cnc3[nH]cc(C(=O)c4cccc(NS(=O)(=O)N(C)C)c4F)c3c2)ccc1C#N and report it.
> 1 µM

Find the measured IC50 of CCN(C)S(=O)(=O)Nc1cccc(C(=O)c2c[nH]c3ncc(Cl)cc23)c1F and report it.
> 1 µM
